# System: Candida albicans ATCC 10231
# Assay type: cell-based
# setup.conditions: ATCC 10231, 48 h
Where a SMILES comes first, the peptide text is derived from it. Bridges are numbered along the chain shown (N, C = ends). Roman numbers before positions name the chains, in order. The star is where a group is joined. Palmitoyl = CCCCCCCCCCCCCCCC(=O)*; Myristoyl = CCCCCCCCCCCCCC(=O)*; Lauroyl = CCCCCCCCCCCC(=O)*
measure.name: MIC against C. albicans ATCC 10231 (µg/mL)
Please state the figure in µg/mL; there is no need to write the unit.

Worked examples, 3 compounds total:
compound	unit.symbol	MIC against C. albicans ATCC 10231
CCCCCCCCCCCCCCCC(=O)N[C@@H](CCCCN)C(=O)NCC(=O)N[C@@H](CCCCN)C(N)=O [Pal-KGK-NH2] (Palmitoyl-Lys-Gly-Lys-NH2)	µg/mL	64
CCCCCCCCCCCCCCCC(=O)N[C@@H](CCCCN)C(=O)N[C@@H](CCCCN)C(N)=O [Pal-KK-NH2]	µg/mL	128
CCCCCCCCCCCC(=O)N[C@@H](CSSC[C@H](NC(=O)CCCCCCCCCCC)C(=O)N[C@@H](CCCCN)C(=O)N[C@@H](CCCCN)C(N)=O)C(=O)N[C@@H](CCCCN)C(=O)N[C@@H](CCCCN)C(N)=O [Laur-CKK-NH2 dimer] (I: Lauroyl-Cys-Lys-Lys-NH2 / II: Lauroyl-Cys-Lys-Lys-NH2; disulfide I:1-II:1)	µg/mL	512

Given the entry CCCCCCCCCCCCCC(=O)N[C@@H](CCCCN)C(=O)NCC(=O)N[C@@H](CCCCN)C(N)=O [Mir-KGK-NH2] (Myristoyl-Lys-Gly-Lys-NH2) , report its measured MIC against C. albicans ATCC 10231.
128
